Origin of the recorded values: the RNAGym collection of RNA variant scans (doi:10.7554/elife.80360)

B1: HDV Ribozyme (parent)
chain: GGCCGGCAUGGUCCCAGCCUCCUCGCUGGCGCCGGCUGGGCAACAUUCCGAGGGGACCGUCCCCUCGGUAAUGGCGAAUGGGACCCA

Variants of: B1
Assay Info: self-cleavage, relative activity (ratio to wild type); higher = more cleavage; co-transcriptional
Returns one of true or false; true when self-cleavage is >= 0.6.

>>> class("G50C G76U")
"true"

Entry G6U U72G : is its self-cleavage no less than 0.6? false

Entry G11A C63G : is its self-cleavage no less than 0.6? false

Entry G1C C32G : is its self-cleavage no less than 0.6? false

Entry G39U A77G : is its self-cleavage no less than 0.6? false

Entry G6C G52C : is its self-cleavage no less than 0.6? false
